Property Label: melting point (°C)

Please review the following examples before continuing.
{"Mol": "COc1ccc(C(=O)N=c2n(Cc3ccc(C#N)cc3)c3ccccc3n2Cc2cccc3cccnc23)cc1", "Endpoint Unit": "°C", "Test Value": 150}
{"Mol": "N#Cc1ccc(Cn2c(=NCCc3cccc(F)c3)n(Cc3cccc4cccnc34)c3ccccc32)cc1", "Endpoint Unit": "°C", "Test Value": 102}
{"Mol": "Cc1ccc(O)c(Cn2c(=NC3CCN(CCN)CC3)n(Cc3ccc(C#N)cc3)c3ccccc32)n1", "Endpoint Unit": "°C", "Test Value": 212}
{"Mol": "N#Cc1ccc(Cn2c(=NCCc3ccc(O)cc3)n(Cc3cccc4cccnc34)c3ccccc32)cc1", "Endpoint Unit": "°C", "Test Value": 160}

[1] Cc1cccc(C(=O)N=c2n(Cc3ccc(C#N)cc3)c3ccccc3n2Cc2cccc3cccnc23)c1
[2] N#Cc1ccc(Cn2c(=NC(=O)c3ccc(-c4ccccc4)cc3)n(Cc3cccc4cccnc34)c3ccccc32)cc1
Consider 1 and 2 . Which of these has its melting point at a higher number? Kindly give the label for the entry you pick.
1
